experiment: Cmax in Swiss mouse kidney at 3 mg/kg, iv measured upto 24 hrs by LC-MS/MS analysis
Type: ADME, organism-based
Parameters: dose 3 mg/kg, time < 24 hrs, route iv
measure-name: Cmax

Could you share which Cmax value was measured for CO[C@@H](CNC(=O)[C@H](NC(=O)[C@H](O)[C@H](C)O)[C@H](O)c1cncn1C)[C@H](O)[C@H](O)C(=O)N(C)[C@@H](Cc1ccccc1)C(=O)NCC(=O)N[C@H](C(=O)N[C@@H](CO)C(=O)N[C@H](C(=O)N[C@H](C(=O)N[C@@H](CC(=O)O)C(=O)N1CCC[C@H]1C(=O)NCc1cc(=O)c(O)cn1O)C(C)(C)C)C(C)(C)O)C(C)(C)O ?
14200 ng/mL
